protocol: Pharmacokinetics in mice, oral dose
Format: in vivo, mice (strain FVB/N)
measurementSetup: FVB/N, mouse, whole blood; oral 10 mg/kg; read-out: Cmax Whole blood
valueType: Cmax (µg/mL)
Give the value in µg/mL but do not write µg/mL after it.

input: Request the reported Cmax associated with "CC(C)[C@@H]1OC(=O)C(C)(C)/C=C/c2ccc3ccc(nc3c2)N(C)NC(=O)[C@@H]2CCCN(N2)C(=O)[C@H](C)NC1=O"
output: 1.49

###

Provide the recorded Ki for the entries that follow.
assayTarget: cyclophilin D (Homo sapiens (Human), UniProt P30405)
Sequence (P30405 30-207, species assumed): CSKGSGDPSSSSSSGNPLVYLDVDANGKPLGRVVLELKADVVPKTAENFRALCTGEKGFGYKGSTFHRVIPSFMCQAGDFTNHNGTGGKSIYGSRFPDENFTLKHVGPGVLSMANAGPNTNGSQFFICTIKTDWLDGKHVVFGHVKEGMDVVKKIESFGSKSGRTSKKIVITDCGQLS
protocol: Functional peptidyl prolyl isomerase (PPIase) spectrophotometric assay, cyclophilin D
measurementSetup: second value of CypA/D cell; read-out: Ki CypD
Entry rule: numbers only, all in nM.

input: Ki for CNC(=O)c1ccc(C[C@@H]2OC(=O)C(C)(C)/C=C/c3ccc4ccc(nc4c3)N(C)N(C)C(=O)[C@@H]3CCCN(N3)C(=O)[C@H](C)NC2=O)cc1 [Compound (12)] ?
output: 49

input: I'd like to know its Ki. The molecule in question is CC(=O)N1NC(=O)[C@@H]2CCCN(N2)C(=O)[C@H](C)NC(=O)[C@H](C(C)C)OC(=O)C(C)(C)/C=C/c2ccc3ccc1nc3c2 [Compound (10)]
output: 8.7

input: Request the reported Ki associated with C[C@@H]1NC(=O)[C@H](Cc2cccc(N)c2)OC(=O)C(C)(C)/C=C/c2ccc3ccc(nc3c2)N(C)NC(=O)[C@@H]2CCCN(N2)C1=O [Compound (50)]
output: 1.6

###

System: SH-SY5Y cells
protocol: Thapsigargin treated cell death assay in SH-SY5Y cells
Assay type: cell-based, human
measurementSetup: compound at 10 μM; positive = protection from cell death, negative = compound toxicity
valueType: SYSY [10 μM] % recovery (%)
Give the quantity in %, number only.

input: Form field: reported SYSY [10 μM] % recovery of "COC[C@]1(C)/C=C/c2ccc3ccc(nc3c2)N(C)NC(=O)[C@@H]2CCCN(N2)C(=O)[C@H](C)NC(=O)[C@H](C(C)C)OC1=O"
output: 9.3

input: Record request: SYSY [10 μM] % recovery value, item "CC(C)[C@@H]1OC(=O)C(C)(C)/C=C/c2ccc3ccc(nc3c2)N(C)NC(=O)[C@@H]2CCCN(N2)C(=O)[C@H](Cc2ccc(CN(C)C)cc2)NC1=O"
output: 1.8

input: Tell me the measured SYSY [10 μM] % recovery of "CC(C)[C@@H]1OC(=O)C(C)(C)/C=C/c2ccc3ccc(nc3c2)N(C)NC(=O)[C@@H]2CCCN(N2)C(=O)[C@H](C2CC2)NC1=O" , please.
output: 29.2

input: I have this compound here, "CC(C)[C@@H]1OC(=O)C(C)(C)/C=C/c2ccc3ccc(nc3c2)N(C)NC(=O)[C@@H]2CCCN(N2)C(=O)[C@H](CCC(=O)NCc2cccnc2)NC1=O" , and I need its recorded SYSY [10 μM] % recovery.
output: 51

input: May I ask what SYSY [10 μM] % recovery has been recorded for "C[C@@H]1NC(=O)[C@H](Cc2ccccc2Cl)OC(=O)C(C)(C)/C=C/c2ccc3ccc(nc3c2)N(C)NC(=O)[C@@H]2CCCN(N2)C1=O" ?
output: 44

input: Name the reported SYSY [10 μM] % recovery value associated with the compound "CC(C)[C@@H]1OC(=O)C(C)(C)/C=C/c2ccc3ccc(nc3c2)N(C)NC(=O)[C@@H]2CCCN(N2)C(=O)[C@H](CCC(=O)N(C)c2ccccc2)NC1=O"
output: 44

input: SYSY [10 μM] % recovery for "CC(C)[C@@H]1OC(=O)C(C)(C)/C=C/c2ccc3ccc(nc3c2)N(C)NC(=O)[C@@H]2CCCN(N2)C(=O)[C@H](CCCCNCc2ccc3ccccc3c2)NC1=O" ?
output: 35

input: I have this compound here, "CC(C)[C@@H]1OC(=O)C(C)(C)/C=C/c2ccc3ccc(nc3c2)N(C)NC(=O)[C@@H]2CCCN(N2)C(=O)[C@H](CCC(=O)N2CCN(C)CC2)NC1=O" , and I need its recorded SYSY [10 μM] % recovery.
output: 44

input: Which SYSY [10 μM] % recovery is listed for "CC(C)[C@@H]1OC(=O)[C@](C)(Cc2ccccc2)/C=C/c2ccc3ccc(nc3c2)N(C)NC(=O)[C@@H]2CCCN(N2)C(=O)[C@H](C)NC1=O" ?
output: 62

input: Any idea what SYSY [10 μM] % recovery was measured for "COc1ccc(C[C@@H]2OC(=O)C(C)(C)/C=C/c3ccc4ccc(nc4c3)N(C)NC(=O)[C@@H]3CCCN(N3)C(=O)[C@H](C)NC2=O)cc1" ?
output: 37

input: What value of measured SYSY [10 μM] % recovery is listed for "C[C@@H]1NC(=O)[C@H](C[C@@H]2CCCN(C)C2)OC(=O)C(C)(C)/C=C/c2ccc3ccc(nc3c2)N(C)NC(=O)[C@@H]2CCCN(N2)C1=O" ?
output: 19

input: Data request, read-out SYSY [10 μM] % recovery, for "C[C@@H]1NC(=O)[C@H](CCC(N)=O)OC(=O)C(C)(C)/C=C/c2ccc3ccc(nc3c2)N(C)NC(=O)[C@@H]2CCCN(N2)C1=O"
output: 10

input: SYSY [10 μM] % recovery for "CC(C)[C@@H]1OC(=O)C2(/C=C/c3ccc4ccc(nc4c3)N(C)NC(=O)[C@@H]3CCCN(N3)C(=O)[C@H](C)NC1=O)CCCC2" ?
output: 33.8
